Experiment: Cell viability: resazurin assay
Type: cell-based, human
Conditions: human, HEp2 cells
Description: Cell Viability: Resazurin Assay HEp2 cells were seeded in 384-well plates (10^3/well/50 μL; BD Falcon Ref 353962) in FBS DMEM (5%, containing 2 mM L-glutamine and 1 mM sodium pyruvate) one day before experimentation. […] The fluorescence of each well at 545 nm (excitation) and 590 nm (emission) was determined using a multi-scanner (Clariostar: BMG Labtech). The percentage loss of cell viability was calculated for each well relative to vehicle (0.5% DMSO) treatment. […]
Recorded metric: CC50 at 5 days

Cc1cnc(N2CC3(CCOCC3)C2)c(C(=O)Nc2ccc(C(=O)N3CCc4cc(C(=O)Nc5c(Cl)cccc5Cl)sc4-c4ccccc43)cc2)c1 [Example 57] = > 13.3 µM
Cc1cnc(N2CC3(COC3)C2)c(C(=O)Nc2ccc(C(=O)N3CCc4cc(C(=O)Nc5c(C)cccc5F)sc4-c4ccccc43)cc2)c1 [Example 90] = > 14.5 µM
Cc1cccc(F)c1NC(=O)c1cc2c(s1)-c1ccccc1N(C(=O)c1ccc(NC(=O)c3cc4c(nc3N3CC5(CCOCC5)C3)CCC4)cc1F)CC2 [Example 78] = > 13.2 µM

# next compound below
# input Given the entry Cc1cccc(C#N)c1NC(=O)c1cc2c(s1)-c1ccccc1N(C(=O)c1ccc(NC(=O)c3cc4c(nc3N3CC5(CCOCC5)C3)CCC4)cc1)CC2 [Example 74] , report its measured CC50 at 5 days.
# output > 13.4 µM
